Listing of recorded melting point by entry.

>>> observed_measurement("O=C(O)CN(CCN(CC(=O)O)C(COCc1ccccc1)C(=O)O)C(COCc1ccccc1)C(=O)O (stereo not given)")
"177 °C"

Read the next record carefully.
Entry Cn1cc(C2=C(c3ccccc3)C(=O)NC2=O)c2ccccc21 ; melting point = 230 to 232 °C

---

Items are presented alongside their recorded melting point.

Some solved cases for reference:
>>> observed_measurement("C=Cc1ccc(C(=O)Oc2ccc(S(=O)(=O)Nc3ccccc3)cc2)cc1")
"59 to 60 °C"
>>> observed_measurement("C/C(=C(\\C#N)C(N)=S)N1CCCCCCC1")
"149 to 150 °C"
>>> observed_measurement("COC(=O)c1ccc(N(N)C(=O)c2ccc(Cl)c(S(N)(=O)=O)c2)c([N+](=O)[O-])c1")
"144 to 147 °C"
>>> observed_measurement("O=C(Nc1ccc2ccc(-c3ccc(F)cc3)nc2n1)c1cccc(Br)c1")
"210 °C"
>>> observed_measurement("CCOc1nc(OCC)c([N+](=O)[O-])c(N2CCS(=O)CC2)n1")
"130 to 132 °C"
>>> observed_measurement("CCCCCCS(=O)(=O)c1nnnn1CC(=O)OCC")
"40 to 42 °C"

Record Cc1cc([N+](=O)[O-])cc(C(=O)Nc2nnn[nH]2)n1 , field melting point: > 300 °C

According to the records, this compound CC(C#N)(Cn1ncc2cc([N+](=O)[O-])ccc21)NC(=O)c1ccc(OC(F)(F)F)cc1 (configuration not stated) displays melting point of 203 to 205 °C

For CC12CC(=O)C3C(CCC4CC(=O)CCC43C)C1CCC2C(=O)CCl (configuration not stated) the compound record lists melting point as 168 to 172 °C

get_value(item= Cc1ccc(Oc2ccc(-c3nnc(N)o3)cc2)c(O)c1 , readout=melting point) returns 181 to 183 °C

CC(=O)c1ccc2sc3ccc(C(C)=O)cc3c2c1 yielded melting point of 207 to 210 °C

Sample CCn1c(=O)n(-c2ccc(N3CCn4c3nc3cccnc34)cc2)c2ncccc21 ; melting point observed: 255 to 256 °C

melting point reported for this compound CCOP(=O)(/C=C/c1cn(-c2ccccc2)nc1OCc1ccc(OCc2sc(-c3ccccc3)nc2C)c(OC)c1)OCC : 113 to 114 °C

Recorded melting point (compound Cc1c(-c2ccccc2)sc2ncc(C(=O)C(C)C)c(O)c12 ): 114 to 117 °C

melting point reading for c1cnc(NCCc2c[nH]cn2)cn1 : 200 to 202 °C

Reported melting point for Cc1[nH]c(=S)n(Nc2ccc(F)cc2)c1-c1ccccc1 was 228 °C

Measured melting point, COc1ccc(F)c(C(N)=O)c1F : 167 to 169 °C

---

Reported melting point values for the following compounds.

Summary for this compound, COC(=O)CCc1ccc(C(=O)O)cc1[N+](=O)[O-] : melting point is 120 to 122 °C

get_value(item= COc1ccc(C(=O)Nc2ccccc2)cc1NCc1ccc(O)c([N+](=O)[O-])c1 , readout=melting point) returns 175 to 176 °C

response.value for COc1ccc(Cc2ccc3c(c2)OCO3)cc1C (field: melting point) = 95 °C

Query O=C1c2ccc(Nc3ccc(F)cc3F)cc2CCc2cc(OCCO)ccc21 yields melting point of 138 °C

# melting point (compound: CCOC(=O)c1sc(SC)c2c1CCc1nc(-c3ccccc3)[nH]c1-2 ) is 218 to 219 °C

Briefly, melting point measured for COc1ccc(C(=O)CCC(=O)N[C@@H](C)C(=O)O)cc1 : 100 to 102 °C

Please fill in: melting point reported for NC(=O)CCN1CCN(C(=O)c2cc(C(F)(F)F)cc(C(F)(F)F)c2)[C@H](Cc2c[nH]c3ccccc23)C1 = 80 to 100 °C

Lab note: measured melting point of CCn1cc(C(=O)C(=O)O)c2ccc(-c3ccc(C(F)(F)F)cc3)cc21 was 247 to 248 °C

According to the records, this compound CC(C)(C)n1c(=O)c(=O)[nH]c2ccccc21 displays melting point of > 300 °C

melting point measured on O=C1OC(CCCN2CCN(c3ccccn3)CC2)CN1c1ccccc1 (stereo not drawn) = 123 to 125 °C

Sure, the documented melting point for C=CCN1C(=O)C(C)N(c2ccc(Oc3ccccc3)cc2)C1=S (stereo not drawn) is 77 °C

Lab book: melting point of Nc1ccc(Cc2ccccc2)cc1[N+](=O)[O-] noted as 80 to 83 °C

Form: compound = CCCNC(=O)C(C)Cc1ccc2c(c1)c(Cc1ccc(C(=O)NS(=O)(=O)c3ccccc3C)cc1OC)cn2C (stereo not drawn) ; melting point = 103 to 117 °C
